The following compounds are shown together with reported pIC50 values.
target: adenosine receptor subtype A1 (A1-Gα16 fusion construct) (Homo sapiens); assay: Indirect determination of adenosine antagonism via gene expression (luciferase reporter), A1; settings: CHO K1 cells, NFAT-TA-Luc reporter, inhibition of luciferase response to agonist 25 nM CPA
The meaning of pIC50 here: minus log10 of the concentration in molar units.

Answered examples (4):
>>> print(df.to_string())
                                   compound  value_reported
0  Cc1ccccc1-n1nc(C)c(-c2ccc3nccnc3c2)c1Nc1ccc(Cl)cc1C(=O)O [Example 2]            9.00
1  CCOc1ccccc1-n1nc(C)c(-c2ccc3nccnc3c2)c1Nc1ccc(OC)cc1C(=O)O [Example 22]            9.00
2  COc1ccnc2ccc(-c3c(C)nn(-c4ccccc4C)c3Nc3ccccc3C(=O)O)cc12 [Example 32]            7.11
3  COc1ccc(Nc2c(-c3ccc4ncnn4c3)c(C)nn2-c2ccccc2C)c(C(=O)O)c1 [Example 20]            8.72

Recorded pIC50 for Cc1ccccc1-n1nc(C)c(-c2cc3nccnc3c(F)c2OCCO)c1Nc1ccccc1C(=O)O [Example 31] , please?
7.38

Recorded pIC50 for Cc1ccccc1-n1nc(C)c(-c2ccn3nc(N)nc3c2)c1Nc1ccccc1C(=O)O [Example 39] , please?
9.00

Recorded pIC50 for COc1ccc(Nc2c(-c3cc4nccnc4cc3F)c(C)nn2-c2ccccc2C)c(C(=O)O)c1 [Example 16] , please?
8.80

Recorded pIC50 for Cc1ccccc1-n1nc(C)c(-c2ccc3cccnc3c2)c1Nc1ccccc1C(=O)O [Example 27] , please?
7.00

====

molecular target: adenosine receptor subtype A1 (A1-Gα16 fusion construct) (Homo sapiens, UniProt P30542); assay: Indirect determination of adenosine antagonism via gene expression (luciferase reporter), A1; conditions: CHO K1 cells, NFAT-TA-Luc reporter, inhibition of luciferase response to agonist 25 nM CPA
Sequence (P30542 with tags, fused parts or gaps): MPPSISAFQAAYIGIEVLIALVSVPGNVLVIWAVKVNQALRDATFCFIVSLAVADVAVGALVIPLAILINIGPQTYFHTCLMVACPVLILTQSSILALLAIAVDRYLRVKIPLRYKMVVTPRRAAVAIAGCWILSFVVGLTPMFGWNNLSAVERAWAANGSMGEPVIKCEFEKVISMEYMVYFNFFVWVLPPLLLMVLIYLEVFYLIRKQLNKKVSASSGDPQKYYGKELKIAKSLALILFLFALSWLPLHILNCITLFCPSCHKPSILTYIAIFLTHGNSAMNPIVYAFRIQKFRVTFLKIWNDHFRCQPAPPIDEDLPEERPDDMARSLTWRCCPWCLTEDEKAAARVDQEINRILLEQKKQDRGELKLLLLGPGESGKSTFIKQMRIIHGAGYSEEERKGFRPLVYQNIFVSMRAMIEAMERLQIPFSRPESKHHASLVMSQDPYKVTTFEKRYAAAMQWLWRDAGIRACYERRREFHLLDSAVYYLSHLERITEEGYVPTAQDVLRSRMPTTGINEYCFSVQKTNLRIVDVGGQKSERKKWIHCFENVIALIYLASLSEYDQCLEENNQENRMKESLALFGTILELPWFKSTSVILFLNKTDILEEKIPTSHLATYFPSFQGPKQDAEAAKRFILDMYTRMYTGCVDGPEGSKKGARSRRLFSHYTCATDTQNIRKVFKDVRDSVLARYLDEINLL
RECORDED_METRIC: pIC50
The meaning of pIC50 here: minus log10 of the concentration in molar units.

Answered examples (2):
>>> print(df.to_string())
                                smiles_code                             system_tested  value_reported
0  Cc1ccccc1-n1nc(C)c(-c2cc(F)c3nccnc3c2)c1Nc1ccccc1C(=O)O  adenosine receptor subtype A1 (A1-Gα16 fusion construct) (Homo sapiens, UniProt P30542)            9.22
1  CCc1ccc(Nc2c(-c3ccc4nccnc4c3)c(C)nn2-c2ccccc2C)c(C(=O)O)c1  adenosine receptor subtype A1 (A1-Gα16 fusion construct) (Homo sapiens, UniProt P30542)            9.00

Recorded pIC50 for Cc1nn(-c2ccccc2)c(Nc2ccccc2C(=O)O)c1-c1cc2nccnc2c(F)c1F , please?
9.15

Recorded pIC50 for Cc1ccccc1-n1nc(C)c(-c2cc(F)c3cncnc3c2)c1Nc1ccccc1C(=O)O , please?
7.64

Recorded pIC50 for Cc1ccccc1-n1nc(C(F)(F)F)c(-c2ccc3nccnc3c2)c1Nc1ccc(Cl)cc1C(=O)O , please?
8.02

Recorded pIC50 for COc1ccc(Nc2c(-c3ccc4[nH]ncc4c3)c(C)nn2-c2ccccc2C)c(C(=O)O)c1 , please?
7.95

Recorded pIC50 for COc1ccc(Nc2c(-c3ccc4scnc4c3)c(C)nn2-c2ccccc2C)c(C(=O)O)c1 , please?
7.93

Recorded pIC50 for Cc1ccccc1-n1nc(C)c(-c2ccc3ncc(N(C)C)nc3c2)c1Nc1ccccc1C(=O)O , please?
7.72

Recorded pIC50 for Cc1nn(-c2ccc(F)cc2F)c(Nc2ccccc2C(=O)O)c1-c1cc(F)c2nccnc2c1 , please?
8.07

The reported numbers originate from patent US20100099681A1.
